Experiment: Plasma and brain CX157 concentrations after oral dosing in rats
Details: male, Sprague-Dawley, rat, brain, po, 5 mg/kg
MEASURED ATTRIBUTE: concentration at 0 h
Number plus unit, in that order.

Quick one: give measured concentration at 0 h for O=S1(=O)c2ccc(F)cc2Oc2cc(OCC(F)(F)F)ccc21
0 ng/mL

---

Assay: Plasma and brain CX157 concentrations after oral dosing in rats
Details: male, Sprague-Dawley, rat, brain, po, 5 mg/kg
MEASURED ATTRIBUTE: concentration at 4 h

Quick one: give measured concentration at 4 h for O=S1(=O)c2ccc(F)cc2Oc2cc(OCC(F)(F)F)ccc21 [CX157]
386 ng/mL
